Source of measurements: patent US8431596B2

Measured IC50 by item
Molecular target: AXL (human catalytic domain) (Homo sapiens, UniProt P30530)
Construct: purchased Upstate Ltd. 14-512
Sequence (P30530 473-894): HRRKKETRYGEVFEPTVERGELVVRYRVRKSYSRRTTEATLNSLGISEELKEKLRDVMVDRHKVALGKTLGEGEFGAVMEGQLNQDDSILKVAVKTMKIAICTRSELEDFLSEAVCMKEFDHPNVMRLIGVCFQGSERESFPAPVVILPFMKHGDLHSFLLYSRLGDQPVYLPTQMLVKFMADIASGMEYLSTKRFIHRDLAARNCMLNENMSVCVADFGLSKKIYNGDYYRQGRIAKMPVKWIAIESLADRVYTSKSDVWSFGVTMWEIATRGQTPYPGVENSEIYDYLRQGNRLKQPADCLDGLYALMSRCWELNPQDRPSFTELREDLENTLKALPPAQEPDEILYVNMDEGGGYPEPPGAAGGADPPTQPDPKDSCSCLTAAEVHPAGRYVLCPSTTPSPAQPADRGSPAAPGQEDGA
Assay: AXL (human catalytic domain) Enzyme Activity Assay (IMAP fluorescence polarisation)
Type: biochemical
Settings: further data set (WW-001 through WW-169, XX-001 through XX-469, YY-001 through YY-016, ZZ-001 through ZZ-003); 150 μM ATP
Assay Readout: IC50

INSERT INTO measurements (compound, test_result) VALUES
  ('c1cc(-c2ccc(NCc3ccoc3)cc2)n2nc(Nc3ccc(OCCN4CCCC4)cc3)nc2c1 [XX-268]', '100 to 1000 nM'),
  ('Cc1ccc(-c2cccc(-c3cccc4nc(Nc5ccc(OCCN6CCCC6)cc5)nn34)c2)s1 [XX-463]', '1000 to 10000 nM'),
  ('Cc1ccc(CS(=O)(=O)n2cc(-c3cccc4nc(Nc5ccc(OCCN6CCCC6)cc5)nn34)cn2)cc1 [XX-295]', '100 to 1000 nM'),
  ('O=C(Nc1nc2cccc(NCc3ccccc3Cl)n2n1)C1CC1 [WW-082]', '1000 to 10000 nM'),
  ('O=C(Nc1nc2cccc(-c3cnc4ccccc4c3)n2n1)C1CC1 [WW-085]', '1000 to 10000 nM'),
  ('CCCCNc1cccc2nc(NC(=O)C3CC3)nn12 [WW-073]', '1000 to 10000 nM'),
  ('FC(F)(F)c1ccc(-c2cccc3nc(Nc4ccc(OCCN5CCCC5)cc4)nn23)cc1 [XX-218]', '100 to 1000 nM'),
  ('Cn1cnnc1SCCn1cc(-c2cccc3nc(Nc4ccc(OCCN5CCCC5)cc4)nn23)cn1 [XX-429]', '100 to 1000 nM'),
  ('c1cc(NCCCN2CCCCC2)cc(Nc2nc3cccc(-c4ccc5c(c4)OCCO5)n3n2)c1 [XX-131]', '≤ 100 nM');
